System: A20 cells
assay_procedure: In vitro cell viability assay, A20
Type: cell-based, murine
applied_conditions: Mus musculus
measured_endpoint: pIC50
pIC50 (log units): -log10 of the concentration in mol/L.

Sample Cc1cc(-c2cncc(C(O)C(F)(F)F)c2)nc2c1C(=O)N(c1cnn(CC(F)F)c1)C2(C)C (stereo not shown) , system: A20 cells. Its pIC50 is 4.08

Hello, the source for this data is patent US11033537B2, in case you need it.
